MEASUREMENT_TARGET: U-II receptors (rat thoracic aorta tissue) (rat)
RUN_DESCRIPTION: method not described; presumably binding to rat aorta tissue / U-II receptors
REPORTED_PROPERTY: Kd (nM)

1) Cpa-c[D-Cys-Pal-D-Trp-Lys-Val-Cys]-Cpa-amide (peptide); 240
